The following compounds are shown together with reported IC50 values.
# experimental system: PD-1/PD-L1 interaction (PD-1-Ig / PD-L1-His) (Homo sapiens (Human), UniProt Q9NZQ7)
# Sequence (Q9NZQ7 other isoform, or with tags, fused parts or gaps): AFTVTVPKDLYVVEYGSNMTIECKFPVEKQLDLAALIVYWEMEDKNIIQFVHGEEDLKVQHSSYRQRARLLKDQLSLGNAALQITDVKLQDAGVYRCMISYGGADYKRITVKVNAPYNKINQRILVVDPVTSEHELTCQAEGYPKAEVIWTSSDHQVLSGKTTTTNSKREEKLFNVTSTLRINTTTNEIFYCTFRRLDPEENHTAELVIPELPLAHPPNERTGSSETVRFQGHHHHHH
# experiment notes: PD-1/PD-L1 Homogenous Time-Resolved Fluorescence (HTRF) binding assay
# assay setup: PD-1/PD-L1 HTRF binding assay; value given as range class; read-out: Range or IC50

Some solved entries appear below for comparison.
> print(dat)
                                    compound                       experimental.system        obs.value
 1  CC(=O)NCCNCc1ccc(OCc2cccc(-c3ccccc3)c2C)cc1OCc1cc(Cl)ccc1F  PD-1/PD-L1 interaction (PD-1-Ig / PD-L1-His) (Homo sapiens (Human), UniProt Q9NZQ7)  100 to 20000 nM
 2  Cc1c(COc2cc(OCc3cncc(C#N)c3)c(CN[C@H](CO)C(=O)O)cc2Cl)cccc1-c1ccc2c(c1)OCCO2  PD-1/PD-L1 interaction (PD-1-Ig / PD-L1-His) (Homo sapiens (Human), UniProt Q9NZQ7)     0.6 to 10 nM
 3  Cc1c(COc2cc(OCc3cccc(C#N)c3)c(CN[C@@H](CC[S+](C)[O-])C(=O)O)cc2Cl)cccc1-c1ccc2c(c1)OCCO2 (some centres unmarked)  PD-1/PD-L1 interaction (PD-1-Ig / PD-L1-His) (Homo sapiens (Human), UniProt Q9NZQ7)     0.6 to 10 nM
 4  Cc1cc(CNC[C@@H](O)CC(=O)O)c(OCCCCC#N)cc1OCc1cccc(-c2ccc3c(c2)OCCO3)c1C  PD-1/PD-L1 interaction (PD-1-Ig / PD-L1-His) (Homo sapiens (Human), UniProt Q9NZQ7)     0.6 to 10 nM
 5  COC(=O)c1ccc(OC)c(COc2cc(OCc3cccc(-c4ccc5c(c4)OCCO5)c3C)c(Cl)cc2CN2CCCC[C@H]2C(=O)O)c1  PD-1/PD-L1 interaction (PD-1-Ig / PD-L1-His) (Homo sapiens (Human), UniProt Q9NZQ7)  100 to 20000 nM
 6  Cc1c(COc2cc(OCc3cccc(C#N)c3)c(CN[C@@H](Cc3cn(Cc4ccccc4)cn3)C(=O)O)cc2Cl)cccc1-c1ccc2c(c1)OCCO2  PD-1/PD-L1 interaction (PD-1-Ig / PD-L1-His) (Homo sapiens (Human), UniProt Q9NZQ7)     0.6 to 10 nM
 7  Cc1cc(CN[C@](C)(CO)C(=O)O)c(OCc2cccnc2)cc1OCc1cccc(-c2ccc3c(c2)OCCO3)c1C  PD-1/PD-L1 interaction (PD-1-Ig / PD-L1-His) (Homo sapiens (Human), UniProt Q9NZQ7)     0.6 to 10 nM
 8  CC(=O)NCCNCc1ccc(OCc2cccc(-c3ccccc3)c2C)cc1OCc1ccc2cn[nH]c2c1  PD-1/PD-L1 interaction (PD-1-Ig / PD-L1-His) (Homo sapiens (Human), UniProt Q9NZQ7)  100 to 20000 nM
 9  CC(=O)NCCNCc1ccc(OCc2cccc(-c3ccccc3)c2C)cc1OCc1ccccc1C  PD-1/PD-L1 interaction (PD-1-Ig / PD-L1-His) (Homo sapiens (Human), UniProt Q9NZQ7)  100 to 20000 nM
10  Cc1c(COc2ccc(CNC(CO)(C(=O)O)C(C)C)c(OCc3cccc(C#N)c3)c2)cccc1-c1ccccc1 (centres unmarked)  PD-1/PD-L1 interaction (PD-1-Ig / PD-L1-His) (Homo sapiens (Human), UniProt Q9NZQ7)     10 to 100 nM

compound Cc1c(COc2ccc(CNC[C@@H](O)CC(=O)O)c(OCc3cccc(C#N)c3)c2)cccc1-c1ccc2c(c1)OCCO2 , IC50 observed: 0.6 to 10 nM

GET /value?item= Cc1c(COc2ccc(CN[C@@H](C(=O)O)[C@@H](C)O)c(OCc3cccc(C#N)c3)c2)cccc1-c1ccccc1 &field=IC50 returns 0.6 to 10 nM

Query Cc1cc(CN2CCCC[C@H]2C(=O)O)c(OCc2cncc(C#N)c2)cc1OCc1cccc(-c2ccc3c(c2)OCCO3)c1Cl yields IC50 of 0.6 to 10 nM

// recorded IC50 for CC(=O)NCCNCc1cc(C)c(OCc2cccc(-c3ccc4c(c3)OCCO4)c2C)cc1OCc1ccc(F)c(C#N)c1 : 0.6 to 10 nM
